- Tested target: Mitogen-activated protein kinase 9 (Homo sapiens) (UniProt P45984);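 note: reported figure is the mean inhibition of JNK2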
- Sequence (P45984 whole entry, looked up): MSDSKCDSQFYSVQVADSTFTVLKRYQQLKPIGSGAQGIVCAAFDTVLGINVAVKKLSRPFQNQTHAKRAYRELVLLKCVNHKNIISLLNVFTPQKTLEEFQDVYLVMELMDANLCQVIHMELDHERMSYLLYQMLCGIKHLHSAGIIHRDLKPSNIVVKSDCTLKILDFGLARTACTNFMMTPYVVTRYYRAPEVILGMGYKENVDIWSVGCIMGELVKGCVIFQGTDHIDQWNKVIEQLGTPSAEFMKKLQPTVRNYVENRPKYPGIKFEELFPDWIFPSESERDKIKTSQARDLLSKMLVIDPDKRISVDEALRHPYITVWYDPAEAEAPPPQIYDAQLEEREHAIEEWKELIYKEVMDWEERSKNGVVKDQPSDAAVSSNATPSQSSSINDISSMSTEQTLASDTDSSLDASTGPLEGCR
- Condition label: at 1 µM
The label depends only on inhibition: 1 if it is at least 4%, 0 if it is smaller.

[
  {
    "Compound": "CC1=C(C(=O)Nc2ccc3[nH]ncc3c2)C(c2ccc(F)cc2)N=C(c2ccc(C(F)(F)F)nc2)N1 (stereo not given)",
    "Discrete label": 1
  },
  {
    "Compound": "Cc1ccc(-c2cc3c(NC(=O)C4CC4)ncnc3o2)cc1",
    "Discrete label": 1
  },
  {
    "Compound": "O=C(Nc1n[nH]c2nnc(-c3cccnc3)cc12)C1CC1",
    "Discrete label": 0
  }
]

API: the following record is the query input.
Q) In plain terms: is recorded inhibition at least 4% for COc1ccccc1-c1cc(/C=C2\C(=O)Nc3ncc(Br)cc32)cc(Br)c1O ?
A) 1
